B1: Transcription factor SOX-11, residues 50 to 117; numbered along this chain, P35716 (parent)
chain: KRPMNAFMVWSKIERRKIMEQSPDMHNAEISKRLGKRWKMLKDSEKIPFIREAERLRLKHMADYPDYK

- Variants of: B1
- assay procedure: abundance fitness (aPCA) (normalised: wild type 0, dead -1); higher = more abundant; growth selection in yeast, the domain comes from the species named
- measurement context: Homo sapiens
measured attribute: abundance fitness

mutant_code=K32W reported_result=-0.137
mutant_code=H26E reported_result=0.383
mutant_code=K39Y reported_result=-0.683
mutant_code=H26S reported_result=0.406
mutant_code=D43S reported_result=-0.339
mutant_code=R33Y reported_result=0.167
mutant_code=E20M reported_result=-0.723
mutant_code=G35H reported_result=0.266
mutant_code=D24V reported_result=-0.643
mutant_code=K39C reported_result=-0.452
mutant_code=M25P reported_result=-0.892
mutant_code=E45Q reported_result=-0.282
mutant_code=I30S reported_result=-0.682
mutant_code=R55S reported_result=-0.146
mutant_code=K39W reported_result=-1.03
mutant_code=E20I reported_result=-0.569
mutant_code=N27P reported_result=0.4
mutant_code=Q21N reported_result=-0.156

Ref: the Human Domainome abundance scans (Beltran et al. 2025)
